Data origin: PubChem BioAssay AID2060900

# Test system: 521955-158-R2-J5-PDC complex spheroids, viability
# assayRemarks: Anticancer human tumor 521955-158-R2-J5-PDC patient-derived pancreatic carcinoma cell line growth inhibition [RAS]
# testContext: curve of first compound; second compound 0.3 µM
pIC50: −log10 of the molar value.

compound: CCN1CCN(Cc2ccc(Nc3ncc(F)c(-c4cc(F)c5nc(C)n(C(C)C)c5c4)n3)nc2)CC1 + CCn1c(-c2cc(N3CCN(C)CC3)cnc2C(C)OC)c2c3cc(ccc31)-c1csc(n1)CC(NC(=O)C1CC1C)C(=O)N1CCCC(N1)C(=O)OCC(C)(C)C2
measurementTarget: 521955-158-R2-J5-PDC complex spheroids, viability
pIC50: > 8.50

compound: CCN1CCN(Cc2ccc(Nc3ncc(F)c(-c4cc(F)c5nc(C)n(C(C)C)c5c4)n3)nc2)CC1 + CCn1c(-c2cccnc2C(C)OC)c2c3cc(ccc31)N1CCOC(CC(NC(=O)C(C(C)C)N(C)C(=O)C3(F)CCN(C(=O)C#CC(C)(C)N(C)C)CC3)C(=O)N3CCCC(N3)C(=O)OCC(C)(C)C2)C1
measurementTarget: 521955-158-R2-J5-PDC complex spheroids, viability
pIC50: < 6.00

compound: CC(Nc1ccc2c(c1)OCCn1cc(N3C(=O)OCC3C(F)F)nc1-2)C(N)=O (stereo not drawn) + CCn1c(-c2cc(N3CCN(C)CC3)cnc2C(C)OC)c2c3cc(ccc31)-c1csc(n1)CC(NC(=O)C1CC1C)C(=O)N1CCCC(N1)C(=O)OCC(C)(C)C2
measurementTarget: 521955-158-R2-J5-PDC complex spheroids, viability
pIC50: > 7.50

compound: Nc1ccn(C2OC(CO)C(O)C2(F)F)c(=O)n1 (stereo not drawn) + CCn1c(-c2cc(N3CCN(C)CC3)cnc2C(C)OC)c2c3cc(ccc31)-c1csc(n1)CC(NC(=O)C1CC1C)C(=O)N1CCCC(N1)C(=O)OCC(C)(C)C2
measurementTarget: 521955-158-R2-J5-PDC complex spheroids, viability
pIC50: > 8.50

compound: NC1c2ccccc2OC12CCN(c1cnc3c(N4CCCc5ncccc54)n[nH]c3n1)CC2 (stereo not drawn) + CCn1c(-c2cc(N3CCN(C)CC3)cnc2C(C)OC)c2c3cc(ccc31)-c1csc(n1)CC(NC(=O)C1CC1C)C(=O)N1CCCC(N1)C(=O)OCC(C)(C)C2
measurementTarget: 521955-158-R2-J5-PDC complex spheroids, viability
pIC50: > 7.50

compound: CC(C)NCC(C(=O)N1CCN(c2ncnc3c2C(C)CC3O)CC1)c1ccc(Cl)cc1 (stereo not drawn) + CCn1c(-c2cc(N3CCN(C)CC3)cnc2C(C)OC)c2c3cc(ccc31)-c1csc(n1)CC(NC(=O)C1CC1C)C(=O)N1CCCC(N1)C(=O)OCC(C)(C)C2
measurementTarget: 521955-158-R2-J5-PDC complex spheroids, viability
pIC50: > 7.50

compound: CCc1c2c(nc3ccc(O)cc13)-c1cc3c(c(=O)n1C2)COC(=O)[C@]3(O)CC + CCn1c(-c2cccnc2C(C)OC)c2c3cc(ccc31)N1CCOC(CC(NC(=O)C(C(C)C)N(C)C(=O)C3(F)CCN(C(=O)C#CC(C)(C)N(C)C)CC3)C(=O)N3CCCC(N3)C(=O)OCC(C)(C)C2)C1
measurementTarget: 521955-158-R2-J5-PDC complex spheroids, viability
pIC50: 8.77

compound: CCc1c2c(nc3ccc(O)cc13)-c1cc3c(c(=O)n1C2)COC(=O)[C@]3(O)CC + CCn1c(-c2cc(N3CCN(C)CC3)cnc2C(C)OC)c2c3cc(ccc31)-c1csc(n1)CC(NC(=O)C1CC1C)C(=O)N1CCCC(N1)C(=O)OCC(C)(C)C2
measurementTarget: 521955-158-R2-J5-PDC complex spheroids, viability
pIC50: > 9.02

* * *

Let's look at some compounds and their measured viability, T/C.
# Test system: 521955-158-R2-J5-PDC complex spheroids, viability
# assayRemarks: Anticancer human tumor 521955-158-R2-J5-PDC cell line growth inhibition [RAS];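 further: compound exposure lasted seven days before the viability read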;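 on viability, T/C: spheroids also contain HUVEC endothelial cells and mesenchymal stem cells as stroma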
# testContext: second compound 10 µM; first compound 0.316 µM; stronger effect = lower value
# Excerpt: RAS pathway inhibitors in Combinations in Complex Spheroids A high-throughput screen of multi-cell type tumor spheroids was designed to identify active combinations of RAS pathway inhibitors and targeted small molecules. Complex spheroids include a stromal component modeled by human endothelial cells (HUVEC) and fibroblasts modeled by human mesenchymal stem cells (MSCs). […] Compounds. […] If the clinical Cmax for an agent had not been determined, the highest concentration tested was 10 microM. […]
measuredQuantity: viability, T/C

compound: CC(Nc1ccc2c(c1)OCCn1cc(N3C(=O)OCC3C(F)F)nc1-2)C(N)=O (stereo not drawn) + C#Cc1c(F)ccc2cc(O)cc(-c3ncc4c(N5CC6CCC(C5)N6)nc(OCC56CCCN5CC(F)C6)nc4c3F)c12
recordedValue: 8.86%

compound: Cc1nc(N2CCC3(CC2)COC(C)C3N)c(CO)nc1Sc1ccnc(N)c1Cl (stereo not drawn) + C#Cc1c(F)ccc2cc(O)cc(-c3ncc4c(N5CC6CCC(C5)N6)nc(OCC56CCCN5CC(F)C6)nc4c3F)c12
recordedValue: 21.3%

compound: CCN1CCN(Cc2ccc(Nc3ncc(F)c(-c4cc(F)c5nc(C)n(C(C)C)c5c4)n3)nc2)CC1 + C#Cc1c(F)ccc2cc(O)cc(-c3ncc4c(N5CC6CCC(C5)N6)nc(OCC56CCCN5CC(F)C6)nc4c3F)c12
recordedValue: 36%

* * *

Below, each entry is listed alongside its reported IC50.
# Tested on: 521955-158-R2-J5-PDC complex spheroids, viability
# assayRemarks: Anticancer human tumor 521955-158-R2-J5-PDC cell line growth inhibition [RAS];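 further: compound exposure lasted seven days before the viability read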
# testContext: curve of first compound; second compound 3.16 µM
measuredQuantity: IC50

compound: NC1c2ccccc2OC12CCN(c1cnc3c(N4CCCc5ncccc54)n[nH]c3n1)CC2 (stereo not given) + C#Cc1c(F)ccc2cc(O)cc(-c3ncc4c(N5CC6CCC(C5)N6)nc(OCC56CCCN5CC(F)C6)nc4c3F)c12
recordedValue: < 31.6 nM
//
compound: Cc1nc(N2CCC3(CC2)COC(C)C3N)c(CO)nc1Sc1ccnc(N)c1Cl (stereo not given) + C#Cc1c(F)ccc2cc(O)cc(-c3ncc4c(N5CC6CCC(C5)N6)nc(OCC56CCCN5CC(F)C6)nc4c3F)c12
recordedValue: < 31.6 nM
//
compound: Nc1ccn(C2OC(CO)C(O)C2(F)F)c(=O)n1 (stereo not given) + C#Cc1c(F)ccc2cc(O)cc(-c3ncc4c(N5CC6CCC(C5)N6)nc(OCC56CCCN5CC(F)C6)nc4c3F)c12
recordedValue: < 3.16 nM
//
compound: CC(C)n1nc(-c2ccc3oc(N)nc3c2)c2c(N)ncnc21 + C#Cc1c(F)ccc2cc(O)cc(-c3ncc4c(N5CC6CCC(C5)N6)nc(OCC56CCCN5CC(F)C6)nc4c3F)c12
recordedValue: < 0.316 nM
//
compound: O=C(c1ccc(F)c(F)c1Nc1ccc(I)cc1F)N1CC(O)([C@@H]2CCCCN2)C1 + C#Cc1c(F)ccc2cc(O)cc(-c3ncc4c(N5CC6CCC(C5)N6)nc(OCC56CCCN5CC(F)C6)nc4c3F)c12
recordedValue: < 3.16 nM
//
compound: CC(Nc1ccc2c(c1)OCCn1cc(N3C(=O)OCC3C(F)F)nc1-2)C(N)=O (stereo not given) + C#Cc1c(F)ccc2cc(O)cc(-c3ncc4c(N5CC6CCC(C5)N6)nc(OCC56CCCN5CC(F)C6)nc4c3F)c12
recordedValue: < 31.6 nM
//
compound: CCC(CC)c1cc(NC2CCC(N)C2)n2nccc2n1 (stereo not given) + C#Cc1c(F)ccc2cc(O)cc(-c3ncc4c(N5CC6CCC(C5)N6)nc(OCC56CCCN5CC(F)C6)nc4c3F)c12
recordedValue: 935 nM
//
compound: C[C@@H](NC(=O)c1ncnc(N)c1Cl)c1ncc(C(=O)Nc2cc(C(F)(F)F)c(Cl)cn2)s1 + C#Cc1c(F)ccc2cc(O)cc(-c3ncc4c(N5CC6CCC(C5)N6)nc(OCC56CCCN5CC(F)C6)nc4c3F)c12
recordedValue: < 31.6 nM
//
compound: CC(=O)OC12COC1CC(O)C1(C)C(=O)C(O)C3=C(C)C(OC(=O)C(O)C(NC(=O)OC(C)(C)C)c4ccccc4)CC(O)(C(OC(=O)c4ccccc4)C21)C3(C)C (stereo not given) + C#Cc1c(F)ccc2cc(O)cc(-c3ncc4c(N5CC6CCC(C5)N6)nc(OCC56CCCN5CC(F)C6)nc4c3F)c12
recordedValue: < 31.6 nM
//
compound: CC1(O)CCCC1n1c(=O)c(C(F)F)cc2cnc(NC3CCN(S(C)(=O)=O)CC3)nc21 (stereo not given) + C#Cc1c(F)ccc2cc(O)cc(-c3ncc4c(N5CC6CCC(C5)N6)nc(OCC56CCCN5CC(F)C6)nc4c3F)c12
recordedValue: < 31.6 nM
